B1: TPR t1 (parent)
chain: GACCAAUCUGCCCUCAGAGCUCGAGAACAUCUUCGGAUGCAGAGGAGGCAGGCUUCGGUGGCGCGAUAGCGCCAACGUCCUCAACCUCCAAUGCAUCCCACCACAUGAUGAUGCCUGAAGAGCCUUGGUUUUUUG

Variants of: B1
Experiment: polymerase ribozyme fitness, log enrichment relative to wild type (log ratio); higher = more active; in vitro selection for triplet polymerase activity
Item-by-item account of polymerase ribozyme fitness (log ratio)

A selection of reference data follows.
G71C C102U    -3.11
C53U C73G    -2.05
C73A U96C    0.0129
G48U U112C A118U    0.638
C28A C64U C70A C99U G110U G120C U132A    -7.34

Can you share its polymerase ribozyme fitness (log ratio)? I mean this variant: G44U C70U
-2.01

Then G39C C89U C115G C123A ?
-4.39

Then G71U U92A G93U ?
-3.61

Then G19A A66U C101U ?
-4.61
